Molecular target: MAO-B (Homo sapiens)
Sequence (P27338 whole entry): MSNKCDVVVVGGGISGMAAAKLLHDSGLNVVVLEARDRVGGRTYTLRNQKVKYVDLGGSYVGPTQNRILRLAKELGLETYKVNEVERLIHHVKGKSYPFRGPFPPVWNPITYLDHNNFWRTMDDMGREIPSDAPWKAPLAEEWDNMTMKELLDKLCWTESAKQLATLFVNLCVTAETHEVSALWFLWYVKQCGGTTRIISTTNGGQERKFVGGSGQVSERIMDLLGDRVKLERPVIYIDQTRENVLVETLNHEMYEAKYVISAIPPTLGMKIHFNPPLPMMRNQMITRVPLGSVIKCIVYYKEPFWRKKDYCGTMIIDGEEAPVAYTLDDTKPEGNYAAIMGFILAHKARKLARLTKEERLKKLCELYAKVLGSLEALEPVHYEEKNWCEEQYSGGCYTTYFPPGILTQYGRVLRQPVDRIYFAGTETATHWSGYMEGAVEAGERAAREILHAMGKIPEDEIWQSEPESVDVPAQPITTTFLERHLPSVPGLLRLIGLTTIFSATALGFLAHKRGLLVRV
Assay: Inhibition of MAO-B at 10 uM
MEASUREMENT_KIND: inhibition at 10 µM (%)
# value in %; strip the unit string

IN: Request the reported inhibition at 10 µM associated with CC(C)OC(=O)N1CCC(Oc2ncnc3c2CCN3c2ccc(S(C)(=O)=O)cc2F)CC1
OUT: 54

====

Test: Cmax in rat at 30 mg/kg
Format: ADME, organism-based
Design: dose 30 mg/kg
Details: in vivo
MEASUREMENT_KIND: Cmax (µM)
# value in µM; strip the unit string

IN: Request the reported Cmax associated with CC(C)OC(=O)N1CCC(Oc2ncnc3c2CCN3c2ccc(S(C)(=O)=O)cc2F)CC1
OUT: 9

Data provenance is ChEMBL document CHEMBL2176966.
